Reference source for all entries: paper PMC11147780

- measured-target: T1, 10E8-GT10.2 epitope scaffold (designed scaffold 10E8-GT10.2 with …, N-linked glycosylation sites added (positions not given))
- T1 chain: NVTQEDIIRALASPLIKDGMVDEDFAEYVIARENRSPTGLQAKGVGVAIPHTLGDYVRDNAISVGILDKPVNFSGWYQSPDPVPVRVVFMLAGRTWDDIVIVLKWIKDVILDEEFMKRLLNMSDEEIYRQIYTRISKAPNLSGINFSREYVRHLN
measured-quantity: Kd (µM)

>>> meas_value("NHP-10E8_MPER-GT10v55_W21-08 (antibody, V domains shown) VH: EVQLVESGGGLVQPGGSLRLSCAASGFTFSDYYMYWVRQAPGKGLEWVGFIRSKAYGGTAEYAASVKGRFTISRDDSKSIAYLQMSSLKTEDTAVYYCTRALPYYNFWSGYYTHFDAFDFWGQGLRVTVSS VL: QAAPTQPPSVSGSPGQSVTISCTGTSSDIGYYNAVSWYQQHPGKAPKLMIYEVSKRPSGVSDRFSGSKSGNTASLTISGLQAEDEADYYCSSYAGSNTLLFGGGTRLTV")
13.2
>>> meas_value("MPER18_d21_45.1_v55_m3_F03 (antibody, V domains shown) VH: EVQLQQSGPVLVKPGPSLKISCKASGFTITDYYMHWVKQTHGKSLAWIGLLYPYNGGTSYNQKFKGKATLTVDTSSSTAYMELNSLTSDDSAVYYCAREGHYDRKGYFDVWGTGTTVTVSS VL: DIVMTQSHKFMSTSVGDRVSITCKASQDVSTAVAWYQQKPGQSPKLLIYWASTRHTGVPDRFTGSGSGTDYTLIISSVQAEDLALYYCQQHYSIPFTFGSGTKLEIK")
0.0312
>>> meas_value("NHP-10E8_MPER-GT10v55_W26-01 (antibody, V domains shown) VH: QLQLQESGPGLVKPSETLSLTCAVSGGSISSNYWSWIRQPPGKGLEWIGRISGSGGSTDYNPSLKSRVTISTDTSKNQFSLKLSSVTAADTAVYYCAGNSHYYNFWSGYYGDNSLDVWGRGVLVTVSS VL: SYDVTQPRSVSVSPGQTARITCGGDNIGSKNVHWYQQKPAQAPVLVIYYDSDRPSGIPERFSGSNSGNTATLTISGVEAGDEADYYCQVWDSSSDHRLFGGGTRLTV")
3.69
